src = the array DNA melting data of Ke et al. (doi:10.1101/2024.01.08.574731)

# test: melting temperature; fluorescence melt of hairpins on a sequencing array, two-state fit, raised by 9.35 °C to match UV melts
# experimentalSetup: sodium 0.088 M
endpoint: Tm (°C)
Expressed in °C, but write only the number.

Example entries begin here.
{"recordSequence": "GGATATGGAAACATGTCC (((.(((....))).)))", "Tm / °C": 45.3}
{"recordSequence": "GAGGGCGAAAGCCCCCTC ((((((....)))..)))", "Tm / °C": 42.7}
{"recordSequence": "GATCAGTGTCCTGATC ((((((....))))))", "Tm / °C": 49.6}
{"recordSequence": "GATGAAGAAATTCATC ((((((....))))))", "Tm / °C": 43.3}

query: GET /values?readout=Tm&item= GTTCCAGGAAACTGGAGC (.(((((....))))).)
result: 47.2

query: GET /values?readout=Tm&item= GCGAGCCCTCGC ((((....))))
result: 55

query: GET /values?readout=Tm&item= GTAGGGCGAAAGCCATAC (((.(((....))).)))
result: 55.6

query: GET /values?readout=Tm&item= GCGGATCGCCGC ((((....))))
result: 55.6

----------
Each item that follows carries a reported Tm.
# test: melting temperature; fluorescence melt of hairpins on a sequencing array, two-state fit, raised by 9.35 °C to match UV melts
# experimentalSetup: sodium 0.088 M
A complete answer gives the number and then names the unit.

Example entries begin here.
{"recordSequence": "GCAGGACGAAAGTCATGC (((.(((....))).)))", "Tm": "66.3 °C"}
{"recordSequence": "GCAAACTCGAAAGAGTGC (((..(((....))))))", "Tm": "43.8 °C"}
{"recordSequence": "GATCCGCGACGGATC ((((((...))))))", "Tm": "57.9 °C"}
{"recordSequence": "GGTGCATCGAAAGATACC (((..(((....))))))", "Tm": "27.9 °C"}
{"recordSequence": "GATCGATACTCGATC ((((((...))))))", "Tm": "51.3 °C"}

query: GET /values?readout=Tm&item= GCGGGAAACCGC ((((....))))
result: 67.3 °C

query: GET /values?readout=Tm&item= GATCACACGCGTGATC ((((((....))))))
result: 58.5 °C

query: GET /values?readout=Tm&item= GATCTGCCTCCAGATC ((((((....))))))
result: 46.3 °C

----------
# test: melting temperature; fluorescence melt of hairpins on a sequencing array, two-state fit, raised by 9.35 °C to match UV melts
# experimentalSetup: sodium 0.088 M
Returns rule met if the recorded Tm is greater than or equal to 50 °C, and rule not met otherwise.

query: Can GATCCGGAGACGGATC ((((((....)))))) be said to have Tm at or above 50 °C?
result: rule met

query: Can GCTTACGAAAGTACTAGC ((((((....)))..))) be said to have Tm at or above 50 °C?
result: rule not met

query: Can GCGTTGCGAAAGCACGGC ((..(((....)))..)) be said to have Tm at or above 50 °C?
result: rule met

query: Can GTACACTCGAAAGAGTAC (((..(((....)))))) be said to have Tm at or above 50 °C?
result: rule not met
